This collection of values is drawn from ChEMBL document CHEMBL1138515.

test: Drug level in Sprague-Dawley rat liver at 5 mg/kg, po after 12 hrs; assay type: ADME, organism-based; design: dose 5 mg/kg, route oral; conditions: read-out: Drug uptake

{"columns": ["Structure smiles", "Unit of measure", "concentration at 12 h"],
 "data": [
  ["Cc1cccc(C)c1CN[C@]1(CCC(C)(C)C)C(=O)C(C2=NS(=O)(=O)c3cc(NS(C)(=O)=O)ccc3N2)=C(O)c2ccccc21", "ng/g", 2110],
  ["CC(C)CC[C@@]1(NCc2ccccc2)C(=O)C(C2=NS(=O)(=O)c3cc(NS(C)(=O)=O)ccc3N2)=C(O)c2ccccc21", "ng/g", 880]
]}

* * *

target: Genome polyprotein (Hepatitis C virus genotype 1b (isolate Con1) (HCV)); assay: Inhibition of HCV1b Con1 NS5B assessed as [3H]UTP incorporation into RNA by scintillation counting
Sequence (Q9WMX2 2420-3010 limits assumed): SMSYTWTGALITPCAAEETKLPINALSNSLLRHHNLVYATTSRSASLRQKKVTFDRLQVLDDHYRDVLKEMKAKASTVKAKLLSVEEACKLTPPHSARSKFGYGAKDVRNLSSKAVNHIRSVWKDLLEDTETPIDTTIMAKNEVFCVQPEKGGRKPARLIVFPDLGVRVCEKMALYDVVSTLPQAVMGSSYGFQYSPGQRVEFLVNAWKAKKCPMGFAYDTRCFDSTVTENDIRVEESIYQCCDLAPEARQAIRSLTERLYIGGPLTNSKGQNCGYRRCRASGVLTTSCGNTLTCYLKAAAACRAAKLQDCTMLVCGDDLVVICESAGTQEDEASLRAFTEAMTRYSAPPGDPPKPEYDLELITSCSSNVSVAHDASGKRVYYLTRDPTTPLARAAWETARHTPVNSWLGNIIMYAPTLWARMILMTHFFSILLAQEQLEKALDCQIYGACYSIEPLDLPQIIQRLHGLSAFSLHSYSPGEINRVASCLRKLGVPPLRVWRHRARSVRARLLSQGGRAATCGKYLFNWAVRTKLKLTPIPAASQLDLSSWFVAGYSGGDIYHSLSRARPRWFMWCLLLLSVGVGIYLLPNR
IC50 for assorted compounds

{"columns": ["Structure smiles", "Assay target", "IC50"],
 "data": [
  ["Cc1cccc(C)c1CN[C@]1(CCC(C)(C)C)C(=O)C(C2=NS(=O)(=O)c3cc(NS(C)(=O)=O)ccc3N2)=C(O)c2ccccc21", "Genome polyprotein (Hepatitis C virus genotype 1b (isolate Con1) (HCV))", "19 nM"],
  ["CC(C)CC[C@@]1(NCc2ccccc2)C(=O)C(C2=NS(=O)(=O)c3cc(NS(C)(=O)=O)ccc3N2)=C(O)c2ccccc21", "Genome polyprotein (Hepatitis C virus genotype 1b (isolate Con1) (HCV))", "16 nM"]
]}

* * *

assay: Inhibition of HCV1a H77 NS5B assessed as [3H]UTP incorporation into RNA by scintillation counting; set-up: species or system Hepatitis C virus (isolate H77)
pIC50: −log10 of the molar value.
Threshold check on pIC50: at or above 8 gives condition met, strictly below gives condition not met.

{"columns": ["Compound", "Class assignment"],
 "data": [
  ["CC(C)(C)CCC1(NCc2ccc(OCc3ccccc3)cc2)C(=O)C(C2=NS(=O)(=O)c3cc(NS(C)(=O)=O)ccc3N2)=C(O)c2ccccc21 (stereo not given)", "condition not met"],
  ["CC(C)(C)CCC1(NCc2ccccc2C(F)(F)F)C(=O)C(C2=NS(=O)(=O)c3cc(NS(C)(=O)=O)ccc3N2)=C(O)c2ccccc21 (stereo not given)", "condition not met"],
  ["Cc1cc(CNC2(CCC(C)(C)C)C(=O)C(C3=NS(=O)(=O)c4cc(NS(C)(=O)=O)ccc4N3)=C(O)c3ccccc32)n(C)n1 (stereo not given)", "condition met"],
  ["COC(=O)NC1(CCC(C)C)C(=O)C(C2=NS(=O)(=O)c3cc(NS(C)(=O)=O)ccc3N2)=C(O)c2ccccc21 (stereo not given)", "condition not met"],
  ["CC(C)CCC1(NC(=O)c2ccccc2)C(=O)C(C2=NS(=O)(=O)c3cc(NS(C)(=O)=O)ccc3N2)=C(O)c2ccccc21 (stereo not given)", "condition not met"],
  ["Cc1cccc(C)c1CNC1(CCC(C)(C)C)C(=O)C(C2=NS(=O)(=O)c3cc(NS(C)(=O)=O)ccc3N2)=C(O)c2ccccc21 (stereo not given)", "condition not met"],
  ["CC(C)CC[C@@]1(N)C(=O)C(C2=NS(=O)(=O)c3cc(NS(C)(=O)=O)ccc3N2)=C(O)c2ccccc21", "condition met"]
]}

* * *

experiment: Inhibition of HCV1a H77 NS5B assessed as [3H]UTP incorporation into RNA by scintillation counting; set-up: species or system Hepatitis C virus (isolate H77)
Quick rule for you: IC50 under 0.01 µM gets satisfied, anything else gets not satisfied.

{"columns": ["Compound", "Class assignment"],
 "data": [
  ["Cn1ccnc1CNC1(CCC(C)(C)C)C(=O)C(C2=NS(=O)(=O)c3cc(NS(C)(=O)=O)ccc3N2)=C(O)c2ccccc21 (stereo not drawn)", "satisfied"],
  ["COc1ccccc1CNC1(CCC(C)(C)C)C(=O)C(C2=NS(=O)(=O)c3cc(NS(C)(=O)=O)ccc3N2)=C(O)c2ccccc21 (stereo not drawn)", "not satisfied"],
  ["Cc1ccc(CNC2(CCC(C)(C)C)C(=O)C(C3=NS(=O)(=O)c4cc(NS(C)(=O)=O)ccc4N3)=C(O)c3ccccc32)cn1 (stereo not drawn)", "not satisfied"],
  ["Cc1cccc(C)c1CN[C@]1(CCC(C)(C)C)C(=O)C(C2=NS(=O)(=O)c3cc(NS(C)(=O)=O)ccc3N2)=C(O)c2ccccc21", "not satisfied"],
  ["COc1cccc(CNC2(CCC(C)(C)C)C(=O)C(C3=NS(=O)(=O)c4cc(NS(C)(=O)=O)ccc4N3)=C(O)c3ccccc32)c1 (stereo not drawn)", "not satisfied"],
  ["CC(C)CCC1(N)C(=O)C(C2=NS(=O)(=O)c3cc(NS(C)(=O)=O)ccc3N2)=C(O)c2ccccc21 (stereo not drawn)", "not satisfied"]
]}
